Hello, the source for this data is patent US20160046618A1, in case you need it.

Target under test: human recombinant BACE2 (Homo sapiens (Human), UniProt Q9Y5Z0)
Sequence (Q9Y5Z0 63-518): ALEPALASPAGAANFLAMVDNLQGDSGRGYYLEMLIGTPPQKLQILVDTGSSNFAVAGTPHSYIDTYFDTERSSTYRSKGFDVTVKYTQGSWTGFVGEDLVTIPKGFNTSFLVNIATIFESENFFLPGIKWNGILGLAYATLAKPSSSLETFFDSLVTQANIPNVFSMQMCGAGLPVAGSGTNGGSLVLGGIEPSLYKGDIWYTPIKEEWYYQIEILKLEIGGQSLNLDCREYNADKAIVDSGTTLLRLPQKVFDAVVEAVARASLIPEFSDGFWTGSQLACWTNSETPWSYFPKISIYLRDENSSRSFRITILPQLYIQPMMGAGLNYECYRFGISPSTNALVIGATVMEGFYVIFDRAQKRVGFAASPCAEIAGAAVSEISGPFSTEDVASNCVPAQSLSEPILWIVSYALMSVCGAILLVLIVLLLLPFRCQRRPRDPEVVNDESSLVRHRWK
Experiment summary: In vitro enzymatic BACE2 FRET assay
Assay type: biochemical
Protocol conditions: read-out: IC50 IP (μM) BACE2 enzyme
Measurement kind: log10(IC50) (log10 of the value in µM)
A value of 2 here means IC50 of 100 in µM, since values are log10.

Reference set, count: 6
Compound | Target under test | Val
COC[C@]12C[C@H]1[C@@](C)(c1cc(NC(=O)c3cnc(OCc4nc(C)no4)cn3)cc(C)c1F)N=C(N)S2 [Example 1044] | human recombinant BACE2 (Homo sapiens (Human), UniProt Q9Y5Z0) | -1.01
Cc1nc(COc2cnc3c(Nc4cc(F)c(F)c([C@@]5(C)N=C(N)S[C@@]6(C(F)F)C[C@@H]56)c4)nccc3n2)co1 [Example 870] | human recombinant BACE2 (Homo sapiens (Human), UniProt Q9Y5Z0) | -1.49
C[C@H](O)[C@]12C[C@H]1[C@@](C)(c1cc(Nc3ncnc4cc(C#N)cnc34)cc(F)c1F)N=C(N)S2 [Example 907] | human recombinant BACE2 (Homo sapiens (Human), UniProt Q9Y5Z0) | -1.99
Cc1nc(COc2cnc3c(Nc4ccc(F)c([C@@]5(C)N=C(N)S[C@@]6(CF)C[C@H]65)c4)nccc3n2)no1 [Example 828] | human recombinant BACE2 (Homo sapiens (Human), UniProt Q9Y5Z0) | -0.68
COC[C@]12C[C@H]1[C@@](C)(c1cc(NC(=O)c3cnc(OCC(F)(F)F)cn3)cc(C)c1F)N=C(N)S2 [Example 1065] | human recombinant BACE2 (Homo sapiens (Human), UniProt Q9Y5Z0) | -1.20
C#CCOc1cnc2c(Nc3cnc(F)c([C@@]4(C)N=C(N)S[C@@]5(COC)C[C@H]54)c3)nccc2n1 [Example 848] | human recombinant BACE2 (Homo sapiens (Human), UniProt Q9Y5Z0) | -1.47

Kindly review the next compound as well.
QUERY: Look up and state reported log10(IC50) for C[C@]1(c2cc(NC(=O)c3ccc(OCC(F)(F)F)cn3)cc(F)c2F)N=C(N)S[C@@]2(C(=O)N3CCCC3)C[C@H]21 [Example 699]
RESULT: -1.28
